Tested on: Vancomycin-resistant Enterococcus faecium ATCC-700221 (VRE ATCC-700221)
experimental details: MIC of active MY compounds
Type: cell-based
reported conditions: read-out: MIC VRE ATCC-700221
endpoint name: MIC (µg/mL)

compound | comparison operator | recorded measurement
O=C(Nc1ccc(Oc2ccc(=O)[nH]n2)cc1)Nc1ccc(Cl)c(Cl)c1 | = | 4
CN[C@H](CC(C)C)C(=O)N[C@H]1C(=O)N[C@@H](CC(N)=O)C(=O)N[C@H]2C(=O)N[C@H]3C(=O)N[C@H](C(=O)N[C@H](C(=O)O)c4cc(O)cc(O)c4-c4cc3ccc4O)[C@H](O)c3ccc(c(Cl)c3)Oc3cc2cc(c3O[C@@H]2O[C@H](CO)[C@@H](O)[C@H](O)[C@H]2O[C@H]2C[C@](C)(N)[C@H](O)[C@H](C)O2)Oc2ccc(cc2Cl)[C@H]1O [Vancomycin, reference compound] | > | 64
CNC(=O)c1cc(Oc2ccc(NC(=O)Nc3ccc(Cl)c(C(F)(F)F)c3)cc2)ccn1 [Sorafenib, reference compound] | > | 64
O=C(Nc1cccc(Nc2ccc(Cl)nn2)c1)Nc1ccc(Cl)c(Cl)c1 | = | 32

* * *

Test system: Vancomycin-resistant Staphylococcus aureus (VRSA10)
experimental details: MIC of active MY compounds
Type: cell-based
reported conditions: read-out: MIC VRSA10
Description: Based upon the initial results obtained, the active compounds were further screened against additional clinical isolates of methicillin-sensitive S. aureus (MSSA), methicillin-resistant S. aureus (MRSA), vancomycin-resistant S. aureus (VRSA), Staphylococcus epidermidis, vancomycin-resistant Enterococcus faecium (VRE), vancomycin-resistant Enterococcus faecalis (VRE) and Streptococcus pneumoniae, as presented in Table 2. […]
endpoint name: log10 of MIC (log10 of the value in µg/mL)

compound | target or test system | recorded measurement
CNC(=O)c1cc(Oc2ccc(NC(=O)Nc3ccc(Cl)c(C(F)(F)F)c3)cc2)ccn1 [Sorafenib, reference compound] | Vancomycin-resistant Staphylococcus aureus (VRSA10) | 0.60
O=C(Nc1cccc(Nc2ccc(Cl)nn2)c1)Nc1ccc(Cl)c(Cl)c1 | Vancomycin-resistant Staphylococcus aureus (VRSA10) | 0.30
O=C(Nc1ccc(-c2ccc(=O)[nH]n2)cc1)Nc1ccc(Cl)c(Cl)c1 | Vancomycin-resistant Staphylococcus aureus (VRSA10) | 0.00
O=C(Nc1ccc(Oc2ccc(=O)[nH]n2)cc1)Nc1ccc(Cl)c(C(F)(F)F)c1 | Vancomycin-resistant Staphylococcus aureus (VRSA10) | -0.30
O=C(Nc1ccc(Oc2ccc(=O)[nH]n2)cc1)Nc1ccc(Cl)c(Cl)c1 | Vancomycin-resistant Staphylococcus aureus (VRSA10) | 0.00
CC(=O)NC[C@H]1CN(c2ccc(N3CCOCC3)c(F)c2)C(=O)O1 [Linezolid, reference compound] | Vancomycin-resistant Staphylococcus aureus (VRSA10) | 0.00
CN[C@H](CC(C)C)C(=O)N[C@H]1C(=O)N[C@@H](CC(N)=O)C(=O)N[C@H]2C(=O)N[C@H]3C(=O)N[C@H](C(=O)N[C@H](C(=O)O)c4cc(O)cc(O)c4-c4cc3ccc4O)[C@H](O)c3ccc(c(Cl)c3)Oc3cc2cc(c3O[C@@H]2O[C@H](CO)[C@@H](O)[C@H](O)[C@H]2O[C@H]2C[C@](C)(N)[C@H](O)[C@H](C)O2)Oc2ccc(cc2Cl)[C@H]1O [Vancomycin, reference compound] | Vancomycin-resistant Staphylococcus aureus (VRSA10) | 1.81

* * *

# key: entry, value: MIC
Test system: Vancomycin-resistant Enterococcus faecium ATCC-700221 (VRE ATCC-700221)
experimental details: MIC of active MY compounds
Assay type: cell-based
reported conditions: read-out: MIC VRE ATCC-700221

molecule | MIC / µg/mL
CC(=O)NC[C@H]1CN(c2ccc(N3CCOCC3)c(F)c2)C(=O)O1 [Linezolid, reference compound] | 1
O=C(Nc1ccc(Oc2ccc(=O)[nH]n2)cc1)Nc1ccc(Cl)c(C(F)(F)F)c1 | 1
O=C(Nc1ccc(-c2ccc(=O)[nH]n2)cc1)Nc1ccc(Cl)c(Cl)c1 | 2

* * *

Test system: Staphylococcus epidermidis (NRS-101)
experimental details: MBC by plating from MIC wells
Type: cell-based
reported conditions: NRS101, 99.9% reduction in CFU, read-out: MBC S. epidermidis NRS 101
# key: entry, value: MBC
endpoint name: MBC

compound | endpoint name | recorded measurement
CC(=O)NC[C@H]1CN(c2ccc(N3CCOCC3)c(F)c2)C(=O)O1 [Linezolid, reference compound] | MBC | 8 µg/mL
O=C(Nc1ccc(Oc2ccc(=O)[nH]n2)cc1)Nc1ccc(Cl)c(C(F)(F)F)c1 | MBC | 1 µg/mL
CNC(=O)c1cc(Oc2ccc(NC(=O)Nc3ccc(Cl)c(C(F)(F)F)c3)cc2)ccn1 [Sorafenib, reference compound] | MBC | > 64 µg/mL
O=C(Nc1ccc(Oc2ccc(=O)[nH]n2)cc1)Nc1ccc(Cl)c(Cl)c1 | MBC | 8 µg/mL
O=C(Nc1ccc(-c2ccc(=O)[nH]n2)cc1)Nc1ccc(Cl)c(Cl)c1 | MBC | 4 µg/mL
O=C(Nc1cccc(Nc2ccc(Cl)nn2)c1)Nc1ccc(Cl)c(Cl)c1 | MBC | 64 µg/mL

* * *

Test system: Cephalosporin-resistant Streptococcus pneumoniae ATCC-15916
experimental details: MIC of active MY compounds
Format: cell-based
reported conditions: ATCC15916, read-out: MIC S. pneumoniae ATCC-15916

compound | MIC [µg/mL]
O=C(Nc1cccc(Nc2ccc(Cl)nn2)c1)Nc1ccc(Cl)c(Cl)c1 | 4
O=C(Nc1ccc(Oc2ccc(=O)[nH]n2)cc1)Nc1ccc(Cl)c(C(F)(F)F)c1 | 0.5
O=C(Nc1ccc(Oc2ccc(=O)[nH]n2)cc1)Nc1ccc(Cl)c(Cl)c1 | 2
CC(=O)NC[C@H]1CN(c2ccc(N3CCOCC3)c(F)c2)C(=O)O1 [Linezolid, reference compound] | 1
O=C(Nc1ccc(-c2ccc(=O)[nH]n2)cc1)Nc1ccc(Cl)c(Cl)c1 | 2
CNC(=O)c1cc(Oc2ccc(NC(=O)Nc3ccc(Cl)c(C(F)(F)F)c3)cc2)ccn1 [Sorafenib, reference compound] | 4
CN[C@H](CC(C)C)C(=O)N[C@H]1C(=O)N[C@@H](CC(N)=O)C(=O)N[C@H]2C(=O)N[C@H]3C(=O)N[C@H](C(=O)N[C@H](C(=O)O)c4cc(O)cc(O)c4-c4cc3ccc4O)[C@H](O)c3ccc(c(Cl)c3)Oc3cc2cc(c3O[C@@H]2O[C@H](CO)[C@@H](O)[C@H](O)[C@H]2O[C@H]2C[C@](C)(N)[C@H](O)[C@H](C)O2)Oc2ccc(cc2Cl)[C@H]1O [Vancomycin, reference compound] | 1

* * *

System: Cephalosporin-resistant Streptococcus pneumoniae ATCC-700677
experimental details: MBC by plating from MIC wells
Assay type: cell-based
reported conditions: ATCC700677, 99.9% reduction in CFU, read-out: MBC S. pneumoniae ATCC 700677

compound | target or test system | reading unit | comparison operator | MBC
O=C(Nc1ccc(-c2ccc(=O)[nH]n2)cc1)Nc1ccc(Cl)c(Cl)c1 | Cephalosporin-resistant Streptococcus pneumoniae ATCC-700677 | µg/mL | = | 4
O=C(Nc1ccc(Oc2ccc(=O)[nH]n2)cc1)Nc1ccc(Cl)c(C(F)(F)F)c1 | Cephalosporin-resistant Streptococcus pneumoniae ATCC-700677 | µg/mL | = | 2
O=C(Nc1cccc(Nc2ccc(Cl)nn2)c1)Nc1ccc(Cl)c(Cl)c1 | Cephalosporin-resistant Streptococcus pneumoniae ATCC-700677 | µg/mL | > | 64
CNC(=O)c1cc(Oc2ccc(NC(=O)Nc3ccc(Cl)c(C(F)(F)F)c3)cc2)ccn1 [Sorafenib, reference compound] | Cephalosporin-resistant Streptococcus pneumoniae ATCC-700677 | µg/mL | > | 64
CC(=O)NC[C@H]1CN(c2ccc(N3CCOCC3)c(F)c2)C(=O)O1 [Linezolid, reference compound] | Cephalosporin-resistant Streptococcus pneumoniae ATCC-700677 | µg/mL | = | 16
O=C(Nc1ccc(Oc2ccc(=O)[nH]n2)cc1)Nc1ccc(Cl)c(Cl)c1 | Cephalosporin-resistant Streptococcus pneumoniae ATCC-700677 | µg/mL | > | 64

* * *

System: Clostridium difficile (ATCC-BAA1870)
experimental details: MIC broth microdilution, initial screening
Format: cell-based
reported conditions: Clostridioides difficile, ATCCBAA1870, 48 h, anaerobic, 48 hours; read-out: minimum inhibitory concentration (MIC) C. difficile (ATCC-BAA1870)
# key: entry, value: MIC

compound | MIC
Cc1cccc(NC(=O)Nc2ccc(Oc3ccc(=O)[nH]n3)cc2)c1 [MY32] | > 128 µg/mL
CNC(=O)c1cc(Oc2ccc(NC(=O)Nc3ccc(Cl)c(C(F)(F)F)c3)cc2)ccn1 [Sorafenib, reference compound] | 1 µg/mL
O=C(Nc1cccc(Nc2ccc(=O)[nH]n2)c1)Nc1ccc(Cl)c(C(F)(F)F)c1 [MY50] | > 128 µg/mL
O=C(Nc1cccc(Nc2ccc(=O)[nH]n2)c1)Nc1ccc(Cl)c(Cl)c1 [MY49] | > 128 µg/mL
COc1ccc(NC(=O)Nc2cccc(-c3ccc(=O)[nH]n3)c2)cc1 [MY33] | > 128 µg/mL
